target: Cytochrome P450 2B6 (Homo sapiens, UniProt P20813)
Sequence (P20813 whole entry): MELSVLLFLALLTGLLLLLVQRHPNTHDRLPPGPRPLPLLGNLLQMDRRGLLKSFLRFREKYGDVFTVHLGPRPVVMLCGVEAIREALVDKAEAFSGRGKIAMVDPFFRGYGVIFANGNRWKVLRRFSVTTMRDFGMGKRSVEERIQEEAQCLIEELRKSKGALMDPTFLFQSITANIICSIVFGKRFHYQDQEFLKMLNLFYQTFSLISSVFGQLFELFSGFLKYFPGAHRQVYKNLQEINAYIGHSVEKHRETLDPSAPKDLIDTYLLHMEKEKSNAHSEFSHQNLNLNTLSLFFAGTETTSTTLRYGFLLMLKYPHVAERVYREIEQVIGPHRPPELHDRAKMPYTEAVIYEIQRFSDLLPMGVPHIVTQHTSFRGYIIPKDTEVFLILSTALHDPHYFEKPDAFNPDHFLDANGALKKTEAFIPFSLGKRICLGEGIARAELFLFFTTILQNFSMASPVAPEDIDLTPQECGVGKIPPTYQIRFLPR
pIC50: −log10 of the molar value.
measuredQuantity: pIC50

Notebook: Cc1cccnc1-c1ccc(-c2n[nH]c3ncc(-c4ccc5c(c4)CC[C@@H](N4C6COCC4C6)CC5)cc23)nc1 , pIC50 read as < 4.00

----------
test: AUC (0 to 24 hrs) in human (healthy individuals) at 90 mg, single oral dose; format: ADME; details: in vivo
measuredQuantity: AUC(0-t) (ng·h/mL)
The answer is to be given in ng·h/mL; state only the numeric part.

Notebook: Cc1cccnc1-c1ccc(-c2n[nH]c3ncc(-c4ccc5c(c4)CC[C@@H](N4C6COCC4C6)CC5)cc23)nc1 , AUC(0-t) read as 707

----------
Overview of reported pKd across a group of compounds:
Target: UniProtKB P30530
Sequence (P30530 whole entry): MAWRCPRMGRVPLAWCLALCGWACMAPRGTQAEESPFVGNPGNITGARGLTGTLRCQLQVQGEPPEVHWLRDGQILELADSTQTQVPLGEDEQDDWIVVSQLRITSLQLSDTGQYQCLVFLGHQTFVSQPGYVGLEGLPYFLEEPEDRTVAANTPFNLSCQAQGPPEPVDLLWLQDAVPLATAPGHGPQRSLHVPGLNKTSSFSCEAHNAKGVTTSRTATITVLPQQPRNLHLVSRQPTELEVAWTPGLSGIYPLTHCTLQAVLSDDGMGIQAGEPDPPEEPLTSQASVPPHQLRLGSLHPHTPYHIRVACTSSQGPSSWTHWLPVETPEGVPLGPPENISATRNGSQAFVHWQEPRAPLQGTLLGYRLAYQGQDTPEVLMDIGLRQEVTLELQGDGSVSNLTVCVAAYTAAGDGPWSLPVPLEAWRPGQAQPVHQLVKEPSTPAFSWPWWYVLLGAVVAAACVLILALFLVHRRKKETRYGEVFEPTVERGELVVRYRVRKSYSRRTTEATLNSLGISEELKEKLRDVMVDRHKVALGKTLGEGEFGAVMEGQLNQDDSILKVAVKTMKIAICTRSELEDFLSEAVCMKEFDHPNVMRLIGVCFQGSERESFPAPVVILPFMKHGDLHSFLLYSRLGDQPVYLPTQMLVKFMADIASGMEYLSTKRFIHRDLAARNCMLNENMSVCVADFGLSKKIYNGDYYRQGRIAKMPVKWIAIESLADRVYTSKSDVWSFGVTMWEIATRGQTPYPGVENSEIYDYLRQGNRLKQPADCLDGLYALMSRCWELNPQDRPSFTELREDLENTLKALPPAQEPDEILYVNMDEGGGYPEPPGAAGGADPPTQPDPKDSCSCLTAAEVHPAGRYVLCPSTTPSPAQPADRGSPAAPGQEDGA
Assay: Binding affinity to AXL (unknown origin) expressed in HEK293 cells transfected with Nano-Luc fusion vector assessed as dissociation constant by measuring decrease in BRET signal preincubated for 1 hr followed by K-5 NanoBRET tracer addition incubated for 2 hrs
pKd is a log-scale quantity: -log10 of the concentration expressed in molar.

Here are 3 compounds together with their reported answers.
CN(C)S(=O)(=O)c1ccc(-c2n[nH]c3ncc(-c4ccc5c(c4)CC[C@@H](N4C6COCC4C6)CC5)cc23)cc1 | 7.82
Cn1nccc1-c1ccc(-c2n[nH]c3ncc(-c4ccc5c(c4)CC[C@@H](N4C6COCC4C6)CC5)cc23)cc1 | 7.51
Cn1cc(-c2ccc(-c3n[nH]c4ncc(-c5ccc6c(c5)CCC(N5C7COCC5C7)CC6)cc34)cc2)cn1 (racemic) | 5.66

// next entry
Notebook: c1cc2c(cc1-c1cnc3[nH]nc(-c4ccc(N5C[C@@H]6C[C@H]5CO6)cc4)c3c1)CC[C@@H](N1C3COCC1C3)CC2 , pKd read as 6.85

----------
test: Cmax in human (healthy individuals) at 90 mg, single oral dose measured uo to 120 hrs; format: ADME; conditions: in vivo
measuredQuantity: Cmax (ng/mL)
The answer is to be given in ng/mL; state only the numeric part.

Notebook: Cc1cccnc1-c1ccc(-c2n[nH]c3ncc(-c4ccc5c(c4)CC[C@@H](N4C6COCC4C6)CC5)cc23)nc1 , Cmax read as 40

----------
assay: Metabolic stability in human hepatocytes assessed as intrinsic clearance measured per 10^6 cells; format: ADME, cell-based, Hepatocyte; conditions: read-out: CLH
Label key: yes (1) means hepatocyte CLint under 10 µL/min/1e6 cells; no (0) means hepatocyte CLint of 10 µL/min/1e6 cells or more.

-- ask I wonder whether c1ccc(-c2ccc(-c3n[nH]c4ncc(-c5ccc6c(c5)CC[C@@H](N5C7COCC5C7)CC6)cc34)cc2)nc1 has hepatocyte CLint below 10 µL/min/1e6 cells. Can you tell?
-- reply yes (1)

-- ask I wonder whether COCCOc1cccnc1-c1ccc(-c2n[nH]c3ncc(-c4ccc5c(c4)CC[C@@H](N4C6COCC4C6)CC5)cc23)cc1 has hepatocyte CLint below 10 µL/min/1e6 cells. Can you tell?
-- reply yes (1)

-- ask I wonder whether c1cc2c(cc1-c1cnc3[nH]nc(-c4ccc5c(c4)OCCO5)c3c1)CCC(N1C3COCC1C3)CC2 (racemic) has hepatocyte CLint below 10 µL/min/1e6 cells. Can you tell?
-- reply no (0)

-- ask I wonder whether CCc1cccnc1-c1ccc(-c2n[nH]c3ncc(-c4ccc5c(c4)CC[C@@H](N4C6COCC4C6)CC5)cc23)cc1 has hepatocyte CLint below 10 µL/min/1e6 cells. Can you tell?
-- reply yes (1)

-- ask I wonder whether COCCOc1ccc(-c2n[nH]c3ncc(-c4ccc5c(c4)CC[C@@H](N4C6COCC4C6)CC5)cc23)cc1 has hepatocyte CLint below 10 µL/min/1e6 cells. Can you tell?
-- reply no (0)

-- ask I wonder whether Cc1cccnc1-c1ccc(-c2c[nH]c3ncc(-c4ccc5c(c4)CC[C@@H](N4C6COCC4C6)CC5)cc23)cc1 has hepatocyte CLint below 10 µL/min/1e6 cells. Can you tell?
-- reply yes (1)

-- ask I wonder whether Cc1cccnc1-c1ccc(-c2n[nH]c3ncc(-c4ccc5c(c4)CC[C@@H](N4C6COCC4C6)CC5)cc23)nc1 has hepatocyte CLint below 10 µL/min/1e6 cells. Can you tell?
-- reply yes (1)

----------
test: Tmax in human (healthy individuals) at 10 mg, single oral dose; type: ADME; details: in vivo
measuredQuantity: Tmax (h)
The answer is to be given in h; state only the numeric part.

Notebook: Cc1cccnc1-c1ccc(-c2n[nH]c3ncc(-c4ccc5c(c4)CC[C@@H](N4C6COCC4C6)CC5)cc23)nc1 , Tmax read as 6

----------
test: AUCinfinity in cynomolgus monkey at 1 mg/kg, iv measured up to 8 hrs by LC-MS/MS analysis; format: ADME, organism-based, Macaca fascicularis; details: in vivo
measuredQuantity: AUC(0-inf)
Kindly report the value followed by its unit.

Notebook: CN(C)C(=O)c1ccc(-c2n[nH]c3ncc(-c4ccc5c(c4)CC[C@@H](N4C6COCC4C6)CC5)cc23)cc1 , AUC(0-inf) read as 230 ng·h/mL

----------
experiment: Metabolic stability in rat hepatocytes assessed as intrinsic clearance measured per 10^6 cells; format: ADME, cell-based, Hepatocyte; conditions: read-out: CLH
measuredQuantity: hepatocyte CLint (µL/min/1e6 cells)
The answer is to be given in µL/min/1e6 cells; state only the numeric part.

Here are 5 compounds together with their reported answers.
CCc1cccnc1-c1ccc(-c2n[nH]c3ncc(-c4ccc5c(c4)CC[C@@H](N4C6COCC4C6)CC5)cc23)cc1 | 30
CN(C)S(=O)(=O)c1ccc(-c2n[nH]c3ncc(-c4ccc5c(c4)CC[C@@H](N4C6COCC4C6)CC5)cc23)cc1 | 110
CN(C)C(=O)c1ccc(-c2n[nH]c3ncc(-c4ccc5c(c4)CC[C@@H](N4C6COCC4C6)CC5)cc23)cc1 | 20
Cn1ncnc1-c1ccc(-c2n[nH]c3ncc(-c4ccc5c(c4)CC[C@@H](N4C6COCC4C6)CC5)cc23)cc1 | 5
Cn1ccnc1-c1ccc(-c2n[nH]c3ncc(-c4ccc5c(c4)CC[C@@H](N4C6COCC4C6)CC5)cc23)cc1 | 16

// next entry
Notebook: COCCOc1cccnc1-c1ccc(-c2n[nH]c3ncc(-c4ccc5c(c4)CC[C@@H](N4C6COCC4C6)CC5)cc23)cc1 , hepatocyte CLint read as 16

----------
test: Tmax in human (healthy individuals) at 270 mg, single oral dose; format: ADME; conditions: in vivo
measuredQuantity: Tmax (h)
The answer is to be given in h; state only the numeric part.

Notebook: Cc1cccnc1-c1ccc(-c2n[nH]c3ncc(-c4ccc5c(c4)CC[C@@H](N4C6COCC4C6)CC5)cc23)nc1 , Tmax read as 8

----------
test: AUC (0 to 120 hrs) in human (healthy individuals) at 270 mg, single oral dose; format: ADME; conditions: in vivo
measuredQuantity: AUC(0-t) (ng·h/mL)
The answer is to be given in ng·h/mL; state only the numeric part.

Notebook: Cc1cccnc1-c1ccc(-c2n[nH]c3ncc(-c4ccc5c(c4)CC[C@@H](N4C6COCC4C6)CC5)cc23)nc1 , AUC(0-t) read as 7490
